This collection of values is drawn from ChEMBL document CHEMBL3988442.

Parameter: Percent Effect. Scope: all listed entries.
- ASSAY TARGET: Sialic acid-binding Ig-like lectin 9 (Homo sapiens)
- ASSAY TEXT: Hs-Siglec9 ALPHAscreen SOP 20170721
- Parameters: scale not given: direction of the effect not stated beside the values
- CONDITION DETAILS: 10 µM
EXPERIMENTAL ENDPOINT: Percent Effect (%)

> print(dat)
                                    molecule  experimental.endpoint  unit  reported.result
 1  NC(=O)CN1CC2(CCC1=O)CCN(Cc1cc(F)ccc1Cl)CC2         Percent Effect     %             13.3
 2  CCc1nc(C2CCCN(C(=O)c3cnn(CC)c3)C2)no1 (centres undefined)         Percent Effect     %            -1.97
 3  Cc1cc(C)n(C2CCCN(C(=O)CCCNc3ncccn3)C2)n1 (centres undefined)         Percent Effect     %            -4.67
 4  O=C(NC[C@@H]1CCCN1)c1cc(COc2cccc(C(F)(F)F)c2)[nH]n1         Percent Effect     %             10.3
 5  CNc1cc2c(nn1)CCN(C(=O)c1ccc(-n3nccc3C)cc1)C2         Percent Effect     %            -3.32
 6  Cn1cccc1C(=O)Nc1cc(F)ccc1OCC1CCCO1 (centres undefined)         Percent Effect     %             13.6
 7  Cc1nc2ccnn2c(C)c1CCC(=O)N1CCC(C(N)=O)CC1         Percent Effect     %            -2.71
 8  O=C(CCOCc1ccccc1)N1CCCC1c1noc(C2CC2)n1 (centres undefined)         Percent Effect     %             3.05
 9       Cc1csc(N2CCN(C(=O)CCc3ccccn3)CC2)n1         Percent Effect     %             7.95
10  CCN1CCC(NC(=O)CN2CCCC2Cn2nc(C)cc2C)CC1 (centres undefined)         Percent Effect     %             6.76
11  O=C(NC1CCS(=O)(=O)C1)c1sccc1-c1ccc(F)cc1 (centres undefined)         Percent Effect     %            -6.95
12  Cc1cnn(CCC(=O)N2C[C@H]3CC[C@@H]2CN(CC(=O)N(C)C)C3)c1         Percent Effect     %             7.46
13              O=C(Nc1ccccn1)N(CCO)Cc1ccsc1         Percent Effect     %             14.4
14  c1cnnc(N2CCCC2CNCc2cnc(N3CCCC3)nc2)c1 (centres undefined)         Percent Effect     %             6.03
15  COc1ncccc1NC(=O)NCC(O)c1ccc(F)cc1F (centres undefined)         Percent Effect     %             1.59
16      Cc1cnn(C2CN(Cc3nc(C(C)(C)C)no3)C2)c1         Percent Effect     %            -0.55
17  CCCC(C)CN1CCC(n2cc(C3CCCC3)nn2)CC1 (centres undefined)         Percent Effect     %             18.9
18  COc1ccccc1CC(=O)N1CCCC(n2nc(C)cc2C)C1 (centres undefined)         Percent Effect     %            -5.42
19  Cc1ccc(C(=O)N2CCCC(C(=O)N3CCCCC3)C2)c(O)c1 (centres undefined)         Percent Effect     %           -0.223
20      CC(C)c1nnc2ccc(N3CCC(C(N)=O)CC3)nn12         Percent Effect     %            0.782
21  COc1ccccc1CC(=O)NCc1c(C)nc2cc(=O)[nH]n2c1C         Percent Effect     %             9.27
22  CC(NC(=O)COc1ccc(F)cc1)c1nnc2n1CCCCC2 (centres undefined)         Percent Effect     %             13.2
23           Cc1cccc(CN2CC3(CCNCC3)OCC2=O)n1         Percent Effect     %            -3.05
24  CC(CNC(=O)N1CCSCC1)Cc1cccs1 (centres undefined)         Percent Effect     %            -1.72
